Where do these numbers come from? They come from PubChem BioAssay AID1208.

- Tested on: rat chronic carcinogenicity bioassay, TD50
- Test description: DSSTox (CPDBAS) Carcinogenic Potency Database Summary Rat Bioassay Results
- Test context: TD50_Rat_Note: TD50 is harmonic mean of more than one positive test; stronger effect = lower value
Reported metric: Potency

Recorded Potency, per entry:
[
  {
    "Molecule": "CN(CCCC(=O)c1cccnc1)N=O",
    "Potency": "0.0999 mg/kg/day"
  },
  {
    "Molecule": "C=CC(OC(C)=O)c1ccc2c(c1)OCO2 (stereo unspecified)",
    "Potency": "25 mg/kg/day"
  },
  {
    "Molecule": "CCCN(N=O)C(=N)N[N+](=O)[O-]",
    "Potency": "1.31 mg/kg/day"
  },
  {
    "Molecule": "O=NN1CCCCCCC1",
    "Potency": "0.0378 mg/kg/day"
  },
  {
    "Molecule": "CN=[N+](C)[O-]",
    "Potency": "0.0466 mg/kg/day"
  }
]

Input line: What Potency value was documented for this molecule, O=C(O)C(Cl)Cl ?
Output line: 161 mg/kg/day

Input line: Check C[C@H]1C(=O)O[C@@H]2CCN3CC=C(COC(=O)[C@](C)(O)[C@]1(C)O)[C@H]23 too.
Output line: 0.94 mg/kg/day

Input line: Check C=CC(O)c1ccc2c(c1)OCO2 (stereo unspecified) too.
Output line: 18.4 mg/kg/day

Input line: Check CN(CCc1ccccc1)N=O too.
Output line: 0.00998 mg/kg/day

Input line: Check O=C1c2ccccc2C(=O)c2c(O)cccc21 too.
Output line: 93.5 mg/kg/day

Input line: Check Cc1cccc(N=Nc2ccc(N(C)C)cc2)c1 too.
Output line: 3.28 mg/kg/day

====

- Test system: rat chronic carcinogenicity bioassay, TD50
- Test description: DSSTox (CPDBAS) Carcinogenic Potency Database Summary Rat Bioassay Results
- Test context: TD50_Rat_Note: positive test results only by intraperitoneal or intravenous injection; TD50 is harmonic mean of more than one positive; TargetSites_Rat_Female: mammary gland; stronger effect = lower value
Reported metric: Potency

Input line: What Potency value was documented for this compound, COc1ccc(C(=O)/C(Br)=C\C(=O)O)cc1 ?
Output line: 2.77 mg/kg/day

====

- System: rat chronic carcinogenicity bioassay, TD50
- Test description: DSSTox (CPDBAS) Carcinogenic Potency Database Summary Rat Bioassay Results
- Test context: TD50_Rat_Note: TD50 is harmonic mean of more than one positive test; TargetSites_Rat_Female: liver; mammary gland; pancreas; subcutaneous tissue; stronger effect = lower value
Reported metric: Potency

Input line: What Potency value was documented for this compound, Cc1ccc(N=C=O)cc1N=C=O ?
Output line: 33.7 mg/kg/day

====

- Test system: rat chronic carcinogenicity bioassay, TD50
- Test description: DSSTox (CPDBAS) Carcinogenic Potency Database Summary Rat Bioassay Results
- Test context: TargetSites_Rat_BothSexes: hematopoietic system; stronger effect = lower value
Item-by-item account of Potency

[
  {
    "Compound": "CCN(Cc1cccc(S(=O)(=O)O)c1)c1ccc(C(=C2C=CC(=[N+](CC)Cc3cccc(S(=O)(=O)[O-])c3)C=C2)c2ccc(S(=O)(=O)O)cc2)cc1",
    "Reported metric": "Potency",
    "Obs value": "5640 mg/kg/day"
  }
]

// below: Potency requested for another compound
Input line: What Potency value was documented for this compound, Oc1cc2c(cc1O)[C@H]1c3ccc(O)c(O)c3OC[C@@]1(O)C2 ?
Output line: 1000 mg/kg/day

====

- Test system: rat chronic carcinogenicity bioassay, TD50
- Test description: DSSTox (CPDBAS) Carcinogenic Potency Database Summary Rat Bioassay Results
- Test context: TD50_Rat_Note: TD50 is harmonic mean of more than one positive test; TargetSites_Rat_Female: hematopoietic system; liver; vascular system; stronger effect = lower value
Reported metric: Potency

Input line: What Potency value was documented for this compound, C=C1C/C(=C/C)C(=O)O[C@@H]2CCN3CC=C(COC(=O)[C@@]1(O)CO)[C@H]23 ?
Output line: 0.119 mg/kg/day

Input line: Check C/C=C(/C)C(=O)O[C@H]1CCN2CC=C(COC(=O)[C@](O)([C@H](C)OC)C(C)(C)O)[C@H]12 too.
Output line: 0.389 mg/kg/day

====

- Test system: rat chronic carcinogenicity bioassay, TD50
- Test description: DSSTox (CPDBAS) Carcinogenic Potency Database Summary Rat Bioassay Results
- Test context: TD50_Rat_Note: TD50 is harmonic mean of more than one positive test; TargetSites_Rat_Female: hematopoietic system; liver; stronger effect = lower value
Reported metric: Potency

[
  {
    "Compound": "ClC1(Cl)C2(Cl)C3(Cl)C4(Cl)C(Cl)(Cl)C5(Cl)C3(Cl)C1(Cl)C5(Cl)C24Cl (configuration not stated)",
    "Obs value": "1.77 mg/kg/day"
  }
]

// below: Potency requested for another compound
Input line: Find the measured Potency: item c1ccoc1 , target or system rat chronic carcinogenicity bioassay, TD50.
Output line: 0.396 mg/kg/day

====

- System: rat chronic carcinogenicity bioassay, TD50
- Test description: DSSTox (CPDBAS) Carcinogenic Potency Database Summary Rat Bioassay Results
- Test context: TD50_Rat_Note: TD50 is harmonic mean of more than one positive test; greater than ten-fold variation among TD50 values for positive res; TargetSites_Rat_Female: liver; vascular system; stronger effect = lower value
Reported metric: Potency

Input line: What Potency value was documented for this molecule, CN(C)N=O ?
Output line: 0.0959 mg/kg/day

====

- Test system: rat chronic carcinogenicity bioassay, TD50
- Test description: DSSTox (CPDBAS) Carcinogenic Potency Database Summary Rat Bioassay Results
- Test context: TD50_Rat_Note: TD50 is harmonic mean of more than one positive test; TargetSites_Rat_Female: kidney; large intestine; liver; urinary bladder; stronger effect = lower value
Reported metric: Potency

Input line: What Potency value was documented for this compound, Nc1c(Br)cc(Br)c2c1C(=O)c1ccccc1C2=O ?
Output line: 46 mg/kg/day

====

- System: rat chronic carcinogenicity bioassay, TD50
- Test description: DSSTox (CPDBAS) Carcinogenic Potency Database Summary Rat Bioassay Results
- Test context: TD50_Rat_Note: TD50 is harmonic mean of more than one positive test; greater than ten-fold variation among TD50 values for positive res; TargetSites_Rat_Female: esophagus; ear Zymbals gland; hematopoietic system; large intestine; lung; mammary gland; stomach; uterus; vagina; stronger effect = lower value
Reported metric: Potency

Input line: What Potency value was documented for this compound, CCCCN(N=O)C(N)=O ?
Output line: 0.517 mg/kg/day

====

- System: rat chronic carcinogenicity bioassay, TD50
- Test description: DSSTox (CPDBAS) Carcinogenic Potency Database Summary Rat Bioassay Results
- Test context: TargetSites_Rat_BothSexes: nervous system; stronger effect = lower value
Item-by-item account of Potency

Recorded Potency, per entry:
[
  {
    "Compound": "C[C@H]1CCCCN1N=O",
    "Obs value": "13.2 mg/kg/day"
  },
  {
    "Compound": "CN(C)N=Nc1ccccc1",
    "Obs value": "2.31 mg/kg/day"
  }
]

// below: Potency requested for another molecule
Input line: What Potency value was documented for this molecule, C[C@@H]1CCCCN1N=O ?
Output line: 20.4 mg/kg/day

====

- Test system: rat chronic carcinogenicity bioassay, TD50
- Test description: DSSTox (CPDBAS) Carcinogenic Potency Database Summary Rat Bioassay Results
- Test context: TD50_Rat_Note: positive test results only by intraperitoneal or intravenous injection; TargetSites_Rat_Female: NTP bioassay inadequate; stronger effect = lower value
Reported metric: Potency

Input line: What Potency value was documented for this compound, Nc1ncn([C@@H]2O[C@H](CO)[C@@H](O)[C@H]2O)c(=O)n1 ?
Output line: 0.17 mg/kg/day

====

- Tested on: rat chronic carcinogenicity bioassay, TD50
- Test description: DSSTox (CPDBAS) Carcinogenic Potency Database Summary Rat Bioassay Results
- Test context: TD50_Rat_Note: TD50 is harmonic mean of more than one positive test; harmonic mean of TD50 includes a value for upper 99% confidence li; TargetSites_Rat_Female: large intestine; liver; stronger effect = lower value
Reported metric: Potency

Input line: What Potency value was documented for this molecule, COc1cc2c(c3oc(=O)c4c(c13)CCC4=O)C1C=COC1O2 (stereo unspecified) ?
Output line: 0.0032 mg/kg/day

====

- Test system: rat chronic carcinogenicity bioassay, TD50
- Test description: DSSTox (CPDBAS) Carcinogenic Potency Database Summary Rat Bioassay Results
- Test context: TD50_Rat_Note: TD50 is harmonic mean of more than one positive test; TargetSites_Rat_Female: liver; nasal cavity; oral cavity; stronger effect = lower value
- Description: The Carcinogenic Potency Database (CPDB) is a unique and widely used international resource of the results of over 6500 chronic, long-term animal cancer tests on over 1500 chemical substances. The CPDB provides easy access to the bioassay literature, with qualitative and quantitative analyses of both positive and negative experiments that have been published over the past 50 years in the general literature and by the National Cancer Institute/National Toxicology Program. […]
Reported metric: Potency

Input line: Find the measured Potency: item C=CN1CCCC1=O , target or system rat chronic carcinogenicity bioassay, TD50.
Output line: 12 mg/kg/day
